Target: T1, recombinant human LAG-3-his protein (Novoprotein) (human, UniProt P18627 23-450)
T1 construct: Bought; also called huLAG-3; not shown: His tag
T1 sequence (looked up): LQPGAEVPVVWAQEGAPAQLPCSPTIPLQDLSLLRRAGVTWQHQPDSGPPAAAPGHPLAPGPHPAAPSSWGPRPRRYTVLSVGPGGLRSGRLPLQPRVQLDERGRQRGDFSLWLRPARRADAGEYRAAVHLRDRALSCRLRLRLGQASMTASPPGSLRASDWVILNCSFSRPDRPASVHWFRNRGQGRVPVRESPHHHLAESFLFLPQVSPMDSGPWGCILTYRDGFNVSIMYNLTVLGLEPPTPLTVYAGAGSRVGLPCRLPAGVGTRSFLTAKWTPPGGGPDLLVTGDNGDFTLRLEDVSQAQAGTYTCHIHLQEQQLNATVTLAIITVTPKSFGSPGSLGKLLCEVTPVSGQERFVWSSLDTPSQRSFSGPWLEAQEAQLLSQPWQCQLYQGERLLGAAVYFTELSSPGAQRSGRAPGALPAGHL
Assay: BLI Octet, Ab on AHC sensor, huLAG-3-his; test group 3
PROPERTY NAME: koff (s⁻¹)
Give the number; s⁻¹ is assumed, so skip it.

As a guide, the following entries are already answered.
1. mAb747c (antibody, V domains shown, also called mAb717c) VH: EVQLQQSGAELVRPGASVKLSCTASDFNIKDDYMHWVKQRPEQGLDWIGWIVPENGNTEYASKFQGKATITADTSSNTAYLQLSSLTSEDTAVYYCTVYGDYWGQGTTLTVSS VL: DIQMTQSPSSLSASLGERVSLNCRASQEISGYLSWLQQKPDGTIKRLIYAASTLDSGVPKRFSGSRSGSDYSLTISSLESEDFAAYYCLQYASYPLTFGAGTKLELK; 0.00123
2. HumAb747-56 (antibody, human IgG1, V domains shown, humanized mAb747; human IgG1/kappa constant domains) VH: EVQLVQSGAEVKKPGATVKLSCKASDFNIKDDYMHWVQQAPGKGLEWIGWIVPENGNTEYASKFQGRVTITADTSTDTAYLELSSLRSEDTAVYYCTVYGDYWGQGTTVTVSS VL: DIQMTQSPSSLSASVGDRVTITCRASQEISGYLSWLQQKPGGAIKRLIYAASTLDSGVPSRFSGSRSGSDYTLTISSLEPEDFADYYCLQYASYPLTFGQGTKLELK; 0.00431
3. HumAb747-57 (antibody, human IgG1, V domains shown, humanized mAb747; human IgG1/kappa constant domains) VH: EVQLVQSGAEVKKPGATVKLSCTASDFNIKDDYMHWVQQAPGKGLEWIGWIVPENGNTEYASKFQGRVTITADTSTDTAYLELSSLRSEDTAVYYCTVYGDYWGQGTTVTVSS VL: DIQMTQSPSSLSASVGDRVTITCRASQEISGYLSWLQQKPGGAIKRLIYAASTLDSGVPSRFSGSRSGSDYTLTISSLEPEDFADYYCLQYASYPLTFGQGTKLELK; 0.00411
4. HumAb747-58 (antibody, human IgG1, V domains shown, humanized mAb747; human IgG1/kappa constant domains) VH: EVQLVQSGAEVKKPGATVKLSCTASDFNIKDDYMHWVKQAPGKGLEWIGWIVPENGNTEYASKFQGRATITADTSTNTAYLELSSLRSEDTAVYYCTVYGDYWGQGTTVTVSS VL: DIQMTQSPSSLSASVGDRVTITCRASQEISGYLSWLQQKPGGAIKRLIYAASTLDSGVPSRFSGSRSGSDYTLTISSLEPEDFADYYCLQYASYPLTFGQGTKLELK; 0.00405

Give the measured koff for HumAb747-55 (antibody, human IgG1, V domains shown, humanized mAb747; human IgG1/kappa constant domains) VH: EVQLVQSGAEVKKPGATVKISCKVSDFNIKDDYMHWVQQAPGKGLEWIGWIVPENGNTEYASKFQGRVTITADTSTDTAYLELSSLRSEDTAVYYCTVYGDYWGQGTTVTVSS VL: DIQMTQSPSSLSASVGDRVTITCRASQEISGYLSWLQQKPGGAIKRLIYAASTLDSGVPSRFSGSRSGSDYTLTISSLEPEDFADYYCLQYASYPLTFGQGTKLELK
0.0119
